Each recorded value in this set is attributed to ChEMBL document CHEMBL1130376.

Can you tell me IC50 for the items I'm about to list?
assay: Cytotoxicity against human epidermoid carcinoma KB cells; format: functional, cell-based

Which IC50 is listed for `C=C1[C@@H](OC(=O)/C=C/c2ccccc2)C[C@H](OC(C)=O)[C@]2(C)[C@@H]1C[C@]1(C(C)(C)O)C[C@H](OC(C)=O)C(C)=C1[C@@H](OC(=O)c1ccccc1)[C@@H]2OC(C)=O` ? > 10 µg/mL

Also `C=C1[C@@H](OC(=O)/C=C/c2ccccc2)CC[C@@]2(C)[C@@H](O)[C@H](OC(C)=O)C3=C(C)C(=O)C[C@@H]([C@@H](OC(C)=O)[C@H]12)C3(C)C` , if possible. 0.17 µg/mL

Also `CC(=O)O[C@H]1C[C@H]2OC[C@@]2(OC(C)=O)[C@H]2[C@H](OC(C)=O)[C@]3(C(C)(C)O)C[C@H](O)C(C)=C3[C@@H](OC(=O)c3ccccc3)[C@H](OC(C)=O)[C@]12C` , if possible. > 10 µg/mL

Also `C=C1[C@@H](OC(=O)/C=C/c2ccccc2)C[C@H](OC(C)=O)[C@]2(C)[C@@H]1C[C@@H]1C[C@H](OC(C)=O)C(C)=C([C@@H](OC(C)=O)[C@@H]2OC(C)=O)C1(C)C` , if possible. > 10 µg/mL

Also `CC(=O)O[C@H]1C[C@@]2(O)[C@@H](OC(C)=O)[C@@H]3[C@@]4(CO4)[C@@H](OC(C)=O)C[C@H](OC(C)=O)[C@@]3(C)[C@@H](OC(C)=O)[C@H](OC(C)=O)C(=C1C)C2(C)C` , if possible. > 10 µg/mL
